# System: PC-3
# measurement notes: Cytotoxicity against human PC3 cells by MTT assay
# Format: functional, cell-based
value kind: IC50 (µM)
# number only, unit µM dropped from output

- CC[C@@H]1/C=C/[C@H](C(C)O)OC(=O)/C(C)=C\[C@H]2C(=O)NC3=CC(=O)c4c(cc(C)c(O)c4C(=O)CC1)[C@@]32O (stereo partly drawn): 4.5
- CC[C@@H]1/C=C/[C@H](O)[C@H](C)OC(=O)/C(C)=C\[C@@H]2C(=O)NC3=CC(=O)c4c(cc(C)c(O)c4C(=O)CC1)[C@@]32O: 5

Attention now turns to another entry.
Form field - read-out: IC50; system: PC-3; submitted item: `CC[C@@H]1/C=C/[C@H](O)[C@H](C)OC(=O)/C(C)=C\[C@H]2C(=O)NC3=CC(=O)c4c(cc(C)c(O)c4C(=O)CC1)[C@@]32O`
1.9

Measured values drawn from ChEMBL document CHEMBL3091284 for this set.
